- System: PC-3 prostate
- Experiment summary: NCI tumour cell line growth inhibition, 48 h
Result type: GI50

Reference set (4 entries):
1) COc1ccc(C(=O)c2cc3c(N)c(C(=O)Nc4cccc(OC)c4)sc3nc2C)cc1 ... 0.439 µM
2) CC(/C=N/N=C(N)N)=N\N=C(N)N ... 40.3 µM
3) NC(=O)c1ccc(N(C(N)=O)c2c(F)cccc2F)nc1-c1ccc(F)cc1F ... > 100 µM
4) COc1ccc(C2=NC(c3ccc(Cl)cc3)C(c3ccc(Cl)cc3)N2C(=O)N2CCNC(=O)C2)c(OC(C)C)c1 (stereo not given) ... 2.26 µM

// next item, GI50 requested
IN: Tell me the measured GI50 of CN=C(N)N/N=C(\C)c1ccc2c(c1)Cc1ccccc1-2 , please.
OUT: 2.39 µM

* * *

- Test system: OVCAR-4 ovarian
- Experiment summary: NCI tumour cell line growth inhibition, 48 h
Result type: TGI (µM)
Give just the number in µM; leave the unit off.

1. O=c1[nH]c2ccc([N+](=O)[O-])cc2nc1/C=C(\O)c1ccccc1 ... 8.87
2. CN=C(N)N/N=C(\C)c1ccc2c(c1)Cc1ccccc1-2 ... 19.4
3. Cc1cc2nc(-c3c(F)cccc3Cl)n(Cc3c(F)cccc3Cl)c2cc1C ... 74.1

IN: Tell me the measured TGI of CC(/C=N/N=C(N)N)=N\N=C(N)N , please.
OUT: 95.3

* * *

- System: NCI-H226 lung
- Experiment summary: NCI tumour cell line growth inhibition, 48 h
Result type: TGI

1. Cn1cc(C2=C(c3cn(CCCCC(=N)N)c4ccccc34)C(=O)NC2=O)c2ccccc21 ... > 25 µM
2. CC(NC(=O)C(Cc1ccc(OC(=O)c2ccccc2)cc1)NC(=O)OC(C)(C)C)C(=O)NCC(=O)NC(Cc1ccccc1)C(=O)NN (centres undefined) ... > 100 µM
3. O=C1C(c2c(O)[nH]c3ccc(S(=O)(=O)NCCO)cc23)=Nc2ccccc21 ... > 100 µM

// next item, TGI requested
IN: Tell me the measured TGI of CCOC(=O)CCC(NC(=O)c1ccc(Nc2nc3ccccc3nc2C(=O)OCC)cc1)C(=O)OCC (centres undefined) , please.
OUT: 12.2 µM

* * *

GI50 by entry:
- Test system: NCI-H460 lung

1. Nc1c(C(=O)Nc2cccc3ccccc23)sc2nc3c(cc12)C(=O)CCC3 ... 0.165 µM
2. C=C(C)[C@@H]1CC[C@]2(CO)CC[C@]3(C)[C@H](CC[C@@H]4[C@@]5(C)CC[C@H](NCO)C(C)(C)[C@@H]5CC[C@]43C)[C@@H]12 ... 0.918 µM
3. Cc1c(Cl)c(C)c(Cc2c(C)c(Cl)c(C)c(Cl)c2O)c(O)c1Cl ... 2.43 µM

// next item, GI50 requested
IN: Recorded GI50 for CCCN1CCC=C(c2ccc(Nc3nc(Nc4ccccc4C(N)=O)c4cc[nH]c4n3)c(C)c2)C1 with NCI-H460 lung, please?
OUT: 2.46 µM

* * *

- Test system: OVCAR-8 ovarian
- Experiment summary: NCI tumour cell line growth inhibition, 48 h
Result type: TGI

1) Cc1ccc(S(=O)(=O)NC(CO)C(=O)O)cc1 (stereo unspecified) ... > 100 µM
2) O=C1C=Cc2ncccc2C1=O ... 30.2 µM
3) CC(C)N1C(C)[C@@H](c2ccccc2)O[P@]1(=O)CC1=CCCCC1 (stereo partly specified) ... > 100 µM
4) CN(C)CCCNC(=O)c1cn2c(ccc3sc4ccccc4c(=O)c32)n1 ... 10.1 µM
5) O=Cc1ccc(N2CCN(c3ccc(C=O)cc3)CC2)cc1 ... > 100 µM

IN: Tell me the measured TGI of CC(C(N)=O)N(C)C(=O)c1cnc2ccccc2c1 (stereo unspecified) , please.
OUT: > 100 µM

IN: Tell me the measured TGI of Nc1c(C(=O)Nc2cccc3ccccc23)sc2nc3c(cc12)C(=O)CCC3 , please.
OUT: 32.1 µM

IN: Tell me the measured TGI of C=CC[C@H](N=C(SC)SC)C(=O)N1C(=O)N(C)[C@@H](C)[C@H]1c1ccccc1 , please.
OUT: > 100 µM

IN: Tell me the measured TGI of c1ccc(-c2nnc3nn4c(-c5ccccc5)cnnc4c3c2-c2ccccc2)cc1 , please.
OUT: > 100 µM

IN: Tell me the measured TGI of O=C(CCC1CCCCN1)Nc1ccc2c(c1)C(=O)c1ccc(NC(=O)CCN3CCCCC3)cc1C2=O (stereo unspecified) , please.
OUT: 9.73 µM

IN: Tell me the measured TGI of C(=C/c1nc2ccccc2o1)/c1ccc2c(c1)OCO2 , please.
OUT: > 100 µM

* * *

- Test system: MCF7 breast
- Experiment summary: NCI tumour cell line growth inhibition, 48 h
Result type: GI50

1) COc1cccc(NC2=C(Cl)C(=O)N(Cc3ccc(Cl)cc3)C2=O)c1 ... 2.09 µM
2) Cc1cc2nc(-c3c(F)cccc3Cl)n(Cc3c(F)cccc3Cl)c2cc1C ... 12.8 µM
3) COc1ccc2c(c1)/C(=N/OC(C)=O)c1c-2cnc2ccccc12 ... 39.7 µM

IN: Tell me the measured GI50 of Cc1cc(Nc2nc(-c3ccncc3)nc3ccccc23)n[nH]1 , please.
OUT: 8.18 µM

* * *

- System: M14 melanoma
- Experiment summary: NCI tumour cell line growth inhibition, 48 h
Result type: TGI (µM)
Give just the number in µM; leave the unit off.

1. O=C(NOCCO)c1cc(CN2OCCCC2=O)c(F)c(F)c1Nc1ccc(I)cc1F ... 0.0237

// next item, TGI requested
IN: Tell me the measured TGI of CN(C)CCNC(=O)c1c(O)ccc2c1c1c(n2CCc2ccccc2)C(=O)c2ccccc2C1=O , please.
OUT: 3.47

* * *

- Tested on: MDA-MB-231 breast
- Experiment summary: NCI tumour cell line growth inhibition, 48 h
Result type: TGI

1. O=C(Nc1cccc(C(F)(F)F)c1)c1cc2ccccc2cc1O ... 7.08 µM
2. O=C(/C=C/c1cccc2ccccc12)Nc1ncc(Cc2ccccc2)s1 ... > 40.3 µM
3. CCOC(=O)CCC(NC(=O)c1ccc(Nc2nc3ccccc3nc2C(=O)OCC)cc1)C(=O)OCC (centres undefined) ... > 23.8 µM
4. COC(=O)/C(=N\Nc1nnc(C)n1N)C(C#N)c1ccccc1 (centres undefined) ... > 100 µM
5. Cc1ccc(NC(=O)CC(=O)n2nc(C)c(N=Nc3cccc(C)c3)c2C)cc1 ... > 100 µM

IN: Tell me the measured TGI of Nc1ccn(C2OC(C(OC3OC(CO)C(O)C(N)C3O)C(O)C(O)C(O)C(O)CO)C(N)C(O)C2O)c(=O)n1 (centres undefined) , please.
OUT: 41.1 µM

IN: Tell me the measured TGI of COc1cc2c(cc1OCCCOc1ccc(-c3nc4ccc(N5CCN(C)CC5)cc4[nH]3)cc1)N=C[C@@H]1CCCN1C2=O , please.
OUT: < 0.01 µM

IN: Tell me the measured TGI of Cc1cc2nc(-c3c(F)cccc3Cl)n(Cc3c(F)cccc3Cl)c2cc1C , please.
OUT: 23.1 µM

IN: Tell me the measured TGI of O=P(O)(O)CN1CCNCCN(CP(=O)(O)O)CC1 , please.
OUT: > 100 µM

IN: Tell me the measured TGI of O=C(O)c1ccc(N/C(=C(/C(Cl)=C(Cl)Cl)[N+](=O)[O-])n2nnc3ccccc32)cc1 , please.
OUT: > 100 µM

IN: Tell me the measured TGI of C=CCNC(=S)/N=C/C(C(=O)Nc1ccccc1C)=C(\C)O , please.
OUT: > 100 µM

IN: Tell me the measured TGI of O=S(=O)(O)c1cc(S(=O)(=O)O)c2c(N=Nc3ccc(N=Nc4ccccc4)cc3)c(O)ccc2c1 , please.
OUT: > 100 µM

IN: Tell me the measured TGI of COc1ccc(CNc2nc3ccccc3nc2C(=O)O)cc1 , please.
OUT: > 100 µM

IN: Tell me the measured TGI of c1cc2c(cc1C1=NCCN1)c1cc(C3=NCCN3)ccc1n2CC1CCCCC1 , please.
OUT: > 100 µM

* * *

- Test system: T-47D breast
- Experiment summary: NCI tumour cell line growth inhibition, 48 h
GI50 by entry:

Reference set (8 entries):
1. COc1ccc(-c2n/c(=C\c3c(O)[nH]c4ccccc34)cc3c2=Nc2ccccc2-3)cc1 ... 2.22 µM
2. COc1cc(/C=N/NC(=O)c2ccccc2Nc2cccc(C(F)(F)F)c2)cc(OC)c1OC ... 3.33 µM
3. Nc1nc(N)c2c(n1)NC(c1sc(Cl)nc1Cl)CC(c1ccc3c(c1)OCO3)=N2 (centres undefined) ... 5.36 µM
4. NC(=O)c1ccc(N(C(N)=O)c2c(F)cccc2F)nc1-c1ccc(F)cc1F ... > 100 µM
5. COc1cccc(NC2=C(Cl)C(=O)N(Cc3ccc(Cl)cc3)C2=O)c1 ... 10.9 µM
6. COc1ccc(C(=O)c2cc3c(N)c(C(=O)Nc4cccc(OC)c4)sc3nc2C)cc1 ... 4.7 µM
7. Cc1ccc(-c2n[nH]c(=O)c3noc(-c4ccc(C)cc4)c23)cc1 ... 2.41 µM
8. O=Cc1ccc(N2CCN(c3ccc(C=O)cc3)CC2)cc1 ... 3.35 µM

IN: Tell me the measured GI50 of O=C(Nc1nc2ccccc2s1)c1cc(-c2ccc(F)cc2)n2nc(-c3ccccc3)cc2n1 , please.
OUT: 3.34 µM

IN: Tell me the measured GI50 of Cc1c(Cl)c(C)c(Cc2c(C)c(Cl)c(C)c(Cl)c2O)c(O)c1Cl , please.
OUT: 2.11 µM

IN: Tell me the measured GI50 of CCN(CC)Cc1cc(Nc2c3ccccc3nc3cc(Cl)ccc23)ccc1O , please.
OUT: 1.97 µM

IN: Tell me the measured GI50 of COc1ccc2c(c1)/C(=N/OC(C)=O)c1c-2cnc2ccccc12 , please.
OUT: 19.9 µM

IN: Tell me the measured GI50 of Oc1ccc(Cl)cc1/C=N\NC(=S)N/N=C/c1cc(Cl)ccc1O , please.
OUT: 2.73 µM

IN: Tell me the measured GI50 of Cc1cc(Nc2nc(-c3ccncc3)nc3ccccc23)n[nH]1 , please.
OUT: 5 µM
